- assayed system: T1, huNABA-avi-his (human, biotinylated in vivo at the avi tag)
- T1 construct: immobilized on the Biacore chip; also called NABA-avi-his reagent; N-A1-B3-A2
- T1 chain: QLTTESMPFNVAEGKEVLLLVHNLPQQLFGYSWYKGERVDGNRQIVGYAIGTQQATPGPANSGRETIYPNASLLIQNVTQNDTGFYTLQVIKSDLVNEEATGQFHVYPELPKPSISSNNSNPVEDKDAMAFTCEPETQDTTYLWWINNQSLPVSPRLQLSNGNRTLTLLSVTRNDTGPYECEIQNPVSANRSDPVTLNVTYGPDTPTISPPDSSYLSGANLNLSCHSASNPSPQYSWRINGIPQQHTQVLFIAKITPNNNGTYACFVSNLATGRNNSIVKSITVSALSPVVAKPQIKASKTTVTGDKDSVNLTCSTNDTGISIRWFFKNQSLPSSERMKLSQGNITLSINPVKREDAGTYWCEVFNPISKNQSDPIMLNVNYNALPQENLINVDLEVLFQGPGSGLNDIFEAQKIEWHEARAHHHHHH
- assay remarks: SPR (Biacore); antigen not given, taken as huNABA-avi-his
result type: pKd
The quantity pKd is defined as the negative base-10 logarithm of the molar concentration.

Solved entries (count: 2):
1C8 Fab (hc/wt) (Fab, V domains shown, Fab format) VH: QVQLVQSGSELKKPGASVKVSCKASGYTFTEFGMNWVRQAPGQGLEWMGWINTKTGEATYVEEFKGRFVFSLDTSVSTAYLQISSLKAEDTAVYYCARWDFYHYVEAMDYWGQGTTVTVSS VL: DIQMTQSPSSLSASVGDRVTITCKASQNVGTNVAWYQQKPGKAPKLLIYSASYRYSGVPSRFSGSGSGTDFTLTISSLQPEDFATYYCHQYYTYPLFTFGQGTKLEIK; 6.23
Affinity Matured CDRH-3 construct with CDR-H3 SEQ ID NO:35 (WDFAYYLEAMDY) (Fab, V domains shown) VH: QVQLVQSGSELKKPGASVKVSCKASGYTFTEFGMNWVRQAPGQGLEWMGWINTKTGEATYVEEFKGRFVFSLDTSVSTAYLQISSLKAEDTAVYYCARWDFAYYLEAMDYWGQGTTITVSS VL: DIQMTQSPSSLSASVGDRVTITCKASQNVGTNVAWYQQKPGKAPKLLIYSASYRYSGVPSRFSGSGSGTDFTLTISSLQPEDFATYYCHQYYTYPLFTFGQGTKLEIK; 7.16

Next:
Prompt line: Give its pKd value. Item: Affinity Matured CDRH-3 construct with CDR-H3 SEQ ID NO:34 (WDFAYYFQTMDY) (Fab, V domains shown) VH: QVQLVQSGSELKKPGASVKVSCKASGYTFTEFGMNWVRQAPGQGLEWMGWINTKTGEATYVEEFKGRFVFSLDTSVSTAYLQISSLKAEDTAVYYCARWDFAYYFQTMDYWGQGTTVTVSS VL: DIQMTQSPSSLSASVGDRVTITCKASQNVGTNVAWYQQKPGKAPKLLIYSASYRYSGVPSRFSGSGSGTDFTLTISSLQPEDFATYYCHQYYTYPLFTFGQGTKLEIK
Response line: 7.36

These data points were gathered from patent US20160075795A1.
